Tested on: Salmonidae
Experiment: Binding affinity to Salmon testes DNA
assay_metric: Ka

Worked examples follow.
{"line_notation": "CN(C)CCNC(=O)c1cccc2c1-c1ccccc1C2=O", "test_target": "Salmonidae", "assay_metric": "Ka", "measured": "3.3 10^3/M"}
{"line_notation": "CCN(CC)CCNC(=O)c1cccc2c1-c1ccccc1C2=O", "test_target": "Salmonidae", "assay_metric": "Ka", "measured": "7.8 10^4/M"}
{"line_notation": "O=C(NCCCO)c1cccc2c1-c1ccccc1C2=O", "test_target": "Salmonidae", "assay_metric": "Ka", "measured": "8.4 10^3/M"}
{"line_notation": "O=C(NCCCN1CCOCC1)c1cccc2c1-c1ccccc1C2=O", "test_target": "Salmonidae", "assay_metric": "Ka", "measured": "2.3 10^4/M"}

Quick one: Ka of O=C(NCCN1CCOCC1)c1cccc2c1-c1ccccc1C2=O ?
1.6 10^5/M

Could you do the same for CN(C)CCCNC(=O)c1cccc2c1-c1ccccc1C2=O , please?
3.1 10^4/M
